experiment: In vitro immunosuppression in stimulated T cells expressing Voltage-gated potassium channel subunit Kv1.3; Range is 1-10
measurement_label: IC50 (µM)
The response must be a number in µM with no trailing unit.

Inquiry: Identify the reported IC50 for the following entry. `CCNC(=O)c1cc(/C=C/CCc2ccccc2)ccc1-c1ccc(Cl)cc1`
Reply text: 1
